Record form. Attribute: abundance fitness. Fill in for each entry.
B1: Ankyrin-3, residues 4094 to 4171; numbered along this chain, Q12955 (parent)
chain: MAIVADHLGLSWTELARELNFSVDEINQIRVENPNSLISQSFMLLKKWVTRDGKNATTDALTSVLTKINRIDIVTLLE

variants of: B1; experiment: abundance fitness (aPCA) (normalised: wild type 0, dead -1); higher = more abundant; growth selection in yeast, the domain comes from the species named; details: Homo sapiens
# output: bare number, no unit

I am curious: what abundance fitness value has been reported for `V64C` ? 0.05

Would you kindly repeat that for `A56R` ? -0.506

Would you kindly repeat that for `I73E` ? -0.989
